- tgt: influenza B polymerase bound to a c/v hybrid promoter (Influenza B virus, UniProt Q5V8Y6)
- measurementProtocol: biochemical
- Set-up: species or system influenza B/Memphis/13/03
- conditionContext: 0.025 mM NTPs; capped RNA primed; T ∼ 21°C; t = 10 min; read-out: IC50 (mM), c/v hybrid promoter
The following compounds are shown together with reported IC50 values.
propertyName: IC50 (mM)

- smilesRecord: "Nc1nc2c(ncn2[C@@H]2O[C@H](COP(=O)(O)OP(=O)(O)OP(=O)(O)O)[C@@H](O)[C@H]2F)c(=O)[nH]1"
  valueMeasured: 0.04
- smilesRecord: "Nc1ncnc2c1ncn2[C@@H]1O[C@H](COP(=O)(O)OP(=O)(O)OP(=O)(O)O)[C@@H](O)[C@H]1F"
  valueMeasured: 0.04
